system: RXF 631; assay: NCI tumour cell line growth inhibition, 48 h
Activity calls are given as the source filed them. Rule as the data show it: active = GI50 up to about 1.1 µM and inactive = higher.
Response enum: active, inactive

Here's what some known entries look like.
N/C(S)=N/N=C/c1ccc(O)cn1 : inactive
COC(=O)C1C=NNC1C(=O)OC (stereo unspecified) : inactive
CCCC(=O)OC[n+]1ccc2c(C)c3[nH]c4ccccc4c3c(C)c2c1 : active
CCOC(=O)C(=O)Nc1ccccc1CC : inactive

# ---- query compound ----
Query string: Look up the recorded call for `COC[C@H](C)/N=C/N1CCc2ccccc2C1(Cc1ccccc1)Cc1ccccc1` in this test.
Result string: inactive

====

tested on: T47D; assay: NCI tumour cell line growth inhibition, 48 h
The source made the active and inactive calls. No stated cut-off is given here; in the data, active = GI50 up to about 1.1 µM and inactive = higher.
Response enum: class 1 = active, class 0 = inactive

Here's what some known entries look like.
CCC(Cc1cnc2nc(N)nc(N)c2n1)c1ccc(C(=O)NC(CCC(=O)O)C(=O)O)cc1 (centres undefined) : class 0
COP(=O)(OC)/C(=C/c1c[nH]c2ccccc12)C(=O)O : class 0
CN(CCNC(=O)c1nn(-c2ccc(Cl)cc2Cl)c2c1Cc1ccccc1-2)CCNC(=O)c1nn(-c2ccc(Cl)cc2Cl)c2c1Cc1ccccc1-2 : class 0

Query string: Look up the recorded call for `O=Cc1cccc2ccc3ccccc3c12` in this test.
Result string: class 0

Query string: Look up the recorded call for `O=C(Cc1ccccc1)NN1C(=O)/C(=C\c2ccc(O)cc2)S/C1=N\c1ccccc1` in this test.
Result string: class 0

Query string: Look up the recorded call for `O=C(/C=c1\oc(=O)/c(=C/C(=O)c2ccc(Cl)cc2)oc1=O)c1ccc(Cl)cc1` in this test.
Result string: class 0

Query string: Look up the recorded call for `CCOC(=O)/C1=C(\C)N(c2ccc(C)cc2)C(=O)c2ccccc2C(=O)c2c(OC(C)=O)ccc(OC(C)=O)c21` in this test.
Result string: class 0

Query string: Look up the recorded call for `CCOC(=O)/C(=N/Nc1ccccc1)N1C(=S)N(C)N=C(C)C=C1S` in this test.
Result string: class 0

Query string: Look up the recorded call for CC1(C)C[C@H]2C=C(C=O)[C@]34C[C@]3(C(=O)OC4O)[C@H]2C1 (some centres undefined) in this test.
Result string: class 1

====

test system: HCT-116; experiment: NCI tumour cell line growth inhibition, 48 h
Calls of active or inactive are those of the source. No stated cut-off is given here; in the data, active = GI50 up to about 1.1 µM and inactive = higher.
value-kind: GI50

Query string: Identify the measured GI50 of `COc1ccc(/C=N/n2cnc3[nH]c(C)c(Cc4ccccc4)c3c2=N)cc1` for HCT-116.
Result string: > 100 µM (inactive)

Query string: Identify the measured GI50 of `CC(=O)OCc1cc(CCC(=O)NCCNc2c3ccccc3nc3ccccc23)cc(COC(C)=O)c1O[Si](C)(C)C(C)(C)C` for HCT-116.
Result string: 4.61 µM (inactive)

Query string: Identify the measured GI50 of CC(C)NCC(O)c1ccc(O)c2ncccc12 (stereo not given) for HCT-116.
Result string: 26.4 µM (inactive)

Query string: Identify the measured GI50 of `COc1cc(OC)c2nc(C)c3c(c2c1)OCC3` for HCT-116.
Result string: 80.7 µM (inactive)

Query string: Identify the measured GI50 of `O=C(c1ccco1)N(C(=S)OCCOc1ccccc1)c1ccccc1` for HCT-116.
Result string: 17.3 µM (inactive)

Query string: Identify the measured GI50 of `Cc1ccc(Nc2nc(C)c(C(=O)CC(=O)C(=O)Nc3ccc(Cl)cc3)s2)cc1` for HCT-116.
Result string: > 100 µM (inactive)

Query string: Identify the measured GI50 of `N#CCc1nnc(N)o1` for HCT-116.
Result string: > 100 µM (inactive)

Query string: Identify the measured GI50 of `C/C=C/C=N/N(c1nnc(-c2ccccc2)c(-c2ccccc2)n1)S(=O)(=O)c1ccc(C)cc1` for HCT-116.
Result string: 8.09 µM (inactive)

Query string: Identify the measured GI50 of `O=C(Nc1sccc1S(=O)(=O)c1ccc(Cl)cc1)c1ccc(Cl)cc1` for HCT-116.
Result string: > 100 µM (inactive)

Query string: Identify the measured GI50 of `CC(C)(C)C1=CC(C)(n2[nH]c(=O)n(-c3ccccc3)c2=O)C=C(C(C)(C)C)C1=O` for HCT-116.
Result string: > 100 µM (inactive)

====

test system: DU-145; assay: NCI tumour cell line growth inhibition, 48 h
Calls of active or inactive are those of the source. Rule as the data show it: active = GI50 up to about 1.1 µM and inactive = higher.
value-kind: GI50

Below, each entry is followed by its recorded GI50 result.
CC(=O)Nc1ccc(C(=O)NN2C(=O)C(Cl)C2c2ccc(Cl)cc2)cc1 (stereo unspecified) : > 100 µM (inactive)
COc1cccc(Nc2nc(-c3cccs3)nc3ccc(Br)cc23)c1 : > 100 µM (inactive)
Cc1ccc(Nc2nc(C)c(C(=O)CC(=O)C(=O)Nc3ccc(Cl)cc3)s2)cc1 : > 100 µM (inactive)

Query string: I would be grateful if you could share the reported GI50 for CCN(CC)c1ccc(C2Nc3ccc4ccccc4c3C3=C2C(=O)CCC3)cc1 (stereo unspecified) .
Result string: 23.9 µM (inactive)

Query string: I would be grateful if you could share the reported GI50 for `O=C1C(Br)=C(Br)C(=O)c2c(O)ccc(O)c21` .
Result string: 12.1 µM (inactive)

Query string: I would be grateful if you could share the reported GI50 for `O=C(C(Cl)=C(N1CCCCC1)N1CCCCC1)C(Cl)Cl` .
Result string: > 100 µM (inactive)

====

test system: HCC 2998; test: NCI tumour cell line growth inhibition, 48 h
Activity calls are given as the source filed them. Rule as the data show it: active = GI50 up to about 1.1 µM and inactive = higher.
value-kind: GI50

Below, each entry is followed by its recorded GI50 result.
c1ccc(C2C3=C(Nc4ncnn42)c2ccccc2C3)cc1 (stereo not drawn) : 8.15 µM (inactive)
CCC1CCc2c(OC)ccc(OCC(=O)O)c2C1=O (stereo not drawn) : > 100 µM (inactive)
CCOC(=N)CC(=O)Nc1ccc(Cl)cc1 : > 100 µM (inactive)
CC(C)=C1CCC(CN(C)C)C1=O (stereo not drawn) : 19.1 µM (inactive)
CCN(CC)CCc1c2c(nc3ccccc13)C(=O)c1cccnc1C2=O : 2.54 µM (inactive)

Query string: I would be grateful if you could share the reported GI50 for `O=C(CSCC(=O)N/N=C\c1cccc([N+](=O)[O-])c1)N/N=C\c1cccc([N+](=O)[O-])c1` .
Result string: 30.9 µM (inactive)

Query string: I would be grateful if you could share the reported GI50 for `CC(C)=CCCc1c(C)ccc2c1C(=O)C(=O)C(C(C)C)=C2` .
Result string: > 22 µM (inactive)

Query string: I would be grateful if you could share the reported GI50 for `Nc1c(/N=N/c2ccc(-c3ccc(/N=N/c4c(O)ccc5cc(S(=O)(=O)O)cc(S(=O)(=O)O)c45)cc3)cc2)c(S(=O)(=O)O)cc2cc(S(=O)(=O)O)c(/N=N/c3ccccc3)c(O)c12` .
Result string: > 100 µM (inactive)

Query string: I would be grateful if you could share the reported GI50 for `Nc1nc(Cl)c(C=O)c(NCC2(CO)CCC2)n1` .
Result string: 9.48 µM (inactive)

Query string: I would be grateful if you could share the reported GI50 for `COc1ccc2[nH]cc(C=C3C(=O)NC(=S)NC3=O)c2c1` .
Result string: > 100 µM (inactive)

Query string: I would be grateful if you could share the reported GI50 for CC(=O)OC1CC2c3cccc4c3C(CC2N(C)C1=O)CN4C(=O)c1ccccc1 (stereo not drawn) .
Result string: 15 µM (inactive)

Query string: I would be grateful if you could share the reported GI50 for `CC(C)(CN1CCCCC1)C(/C=C/c1ccc(Cl)c(Cl)c1)=N\NC(=O)N/N=C(/C=C/c1ccc(Cl)c(Cl)c1)C(C)(C)CN1CCCCC1` .
Result string: 1.69 µM (inactive)

Query string: I would be grateful if you could share the reported GI50 for N#Cc1ccnc(C(=O)N2CCCC2C(=O)O)c1 (stereo not drawn) .
Result string: > 100 µM (inactive)

Query string: I would be grateful if you could share the reported GI50 for `COC(=O)/C(C#N)=C1\NN=NN1CCCN1CCOCC1` .
Result string: > 100 µM (inactive)

Query string: I would be grateful if you could share the reported GI50 for `C(/C=C/N1CCCC1)=C\c1nc(N2CCCC2)c2ccccc2n1` .
Result string: 17.4 µM (inactive)

Query string: I would be grateful if you could share the reported GI50 for CCC(C)OC(=O)/C(Br)=C1/OC(=O)c2ccccc2-c2ccccc21 (stereo not drawn) .
Result string: 16.9 µM (inactive)

Query string: I would be grateful if you could share the reported GI50 for O=C1C2=Cc3ccccc3OC2(O)Oc2ccccc21 (stereo not drawn) .
Result string: > 100 µM (inactive)

Query string: I would be grateful if you could share the reported GI50 for C[C@H](CCC(=O)O)[C@H]1CC[C@H]2[C@@H]3[C@H](O)C[C@@H]4C[C@H](O)CC[C@]4(C)[C@H]3CC[C@]12C [CHENODIOL] .
Result string: 28.9 µM (inactive)

This collection of values is drawn from ChEMBL document CHEMBL1201862.
